The reported measurements were obtained from patent US20140357584A1.

test system: HIV-1 strain Bal: M-Tropic; test: Human PBMC assay, p24 antigen ELISA, HIV1 clinical strain Bal; format: cell-based; details: Human immunodeficiency virus 1, BAL, PBMC, 168 h, human PBMC, p24 antigen, seven days; read-out: IC50 Bal: M-Tropic
parameter-measured: IC50 (nM)
Supply the numeric figure in nM, leaving out any unit text.

Q: What value of IC50 has been recorded for this entry: Cc1cn([C@H]2C[C@H](N=[N+]=[N-])[C@@H](CO)O2)c(=O)[nH]c1=O [AZT, zidovudine, reference compound]
Result: 77

====

test system: HIV-1 strain Lav.04: T-Tropic; assay: Human PBMC assay, p24 antigen ELISA, HIV1 clinical strain Lav.04; format: cell-based; conditions: Human immunodeficiency virus 1, PBMC, 168 h, read-out: IC50 Lav.04: T-Tropic, human PBMC, p24 antigen, seven days
parameter-measured: pIC50
On this scale, pIC50 is minus log10 of a concentration expressed in M (mol/L).

INSERT INTO assay_data (molecule, parameter_measured, reading) VALUES
  ('COc1cc2c(OC3OC(C)C(O)C(O)C3O)c3c(c(-c4ccc5c(c4)OCO5)c2cc1OC)C(=O)OC3 (centres unmarked)', 'pIC50', 7.62);

// next item, pIC50 requested
Q: What value of pIC50 has been recorded for this entry: COc1cc2c(O[C@@H]3O[C@H](C)[C@@H](O[C@@H]4O[C@H](CO)[C@@H](O)[C@H](O)[C@H]4O)[C@H](O)[C@H]3OC(C)=O)c3c(c(-c4ccc5c(c4)OCO5)c2cc1OC)C(=O)OC3
Result: 7.68

====

system: HIV-1 strain SF162: M-Tropic; assay: Human PBMC assay, p24 antigen ELISA, HIV1 clinical strain SF162; format: cell-based; conditions: Human immunodeficiency virus 1, PBMC, 168 h, read-out: IC50 SF162: M-Tropic, human PBMC, p24 antigen, seven days
parameter-measured: IC50 (nM)
Supply the numeric figure in nM, leaving out any unit text.

INSERT INTO measurements (molecule, reading) VALUES
  ('COc1cc2c(O[C@@H]3O[C@H](C)[C@@H](O[C@@H]4O[C@H](CO)[C@@H](O)[C@H](O)[C@H]4O)[C@H](O)[C@H]3OC(C)=O)c3c(c(-c4ccc5c(c4)OCO5)c2cc1OC)C(=O)OC3', 14);

// next item, IC50 requested
Q: What value of IC50 has been recorded for this entry: COc1cc2c(OC3OC(C)C(O)C(O)C3O)c3c(c(-c4ccc5c(c4)OCO5)c2cc1OC)C(=O)OC3 (centres unmarked)
Result: 37

====

tested on: HIV-1 strain 89.6: Dual-Tropic; assay: Human PBMC assay, p24 antigen ELISA, HIV1 clinical strain 89.6; format: cell-based; conditions: Human immunodeficiency virus 1, PBMC, 168 h, read-out: IC50 89.6: Dual-Tropic, human PBMC, p24 antigen, seven days
parameter-measured: IC50 (nM)
Supply the numeric figure in nM, leaving out any unit text.

INSERT INTO assay_data (molecule, parameter_measured, unit_symbol, reading) VALUES
  ('COc1cc2c(O[C@@H]3O[C@H](C)[C@@H](O[C@@H]4O[C@H](CO)[C@@H](O)[C@H](O)[C@H]4O)[C@H](O)[C@H]3OC(C)=O)c3c(c(-c4ccc5c(c4)OCO5)c2cc1OC)C(=O)OC3', 'IC50', 'nM', 15);

// next item, IC50 requested
Q: What value of IC50 has been recorded for this entry: COc1cc2c(OC3OC(C)C(O)C(O)C3O)c3c(c(-c4ccc5c(c4)OCO5)c2cc1OC)C(=O)OC3 (centres unmarked)
Result: 32
